Hey, just so you know, these numbers are from ChEMBL document CHEMBL1201862.

- TARGET_OR_TEST_SYSTEM: Ataxin-2 (Homo sapiens) (UniProt Q99700)
- Sequence (Q99700 whole entry): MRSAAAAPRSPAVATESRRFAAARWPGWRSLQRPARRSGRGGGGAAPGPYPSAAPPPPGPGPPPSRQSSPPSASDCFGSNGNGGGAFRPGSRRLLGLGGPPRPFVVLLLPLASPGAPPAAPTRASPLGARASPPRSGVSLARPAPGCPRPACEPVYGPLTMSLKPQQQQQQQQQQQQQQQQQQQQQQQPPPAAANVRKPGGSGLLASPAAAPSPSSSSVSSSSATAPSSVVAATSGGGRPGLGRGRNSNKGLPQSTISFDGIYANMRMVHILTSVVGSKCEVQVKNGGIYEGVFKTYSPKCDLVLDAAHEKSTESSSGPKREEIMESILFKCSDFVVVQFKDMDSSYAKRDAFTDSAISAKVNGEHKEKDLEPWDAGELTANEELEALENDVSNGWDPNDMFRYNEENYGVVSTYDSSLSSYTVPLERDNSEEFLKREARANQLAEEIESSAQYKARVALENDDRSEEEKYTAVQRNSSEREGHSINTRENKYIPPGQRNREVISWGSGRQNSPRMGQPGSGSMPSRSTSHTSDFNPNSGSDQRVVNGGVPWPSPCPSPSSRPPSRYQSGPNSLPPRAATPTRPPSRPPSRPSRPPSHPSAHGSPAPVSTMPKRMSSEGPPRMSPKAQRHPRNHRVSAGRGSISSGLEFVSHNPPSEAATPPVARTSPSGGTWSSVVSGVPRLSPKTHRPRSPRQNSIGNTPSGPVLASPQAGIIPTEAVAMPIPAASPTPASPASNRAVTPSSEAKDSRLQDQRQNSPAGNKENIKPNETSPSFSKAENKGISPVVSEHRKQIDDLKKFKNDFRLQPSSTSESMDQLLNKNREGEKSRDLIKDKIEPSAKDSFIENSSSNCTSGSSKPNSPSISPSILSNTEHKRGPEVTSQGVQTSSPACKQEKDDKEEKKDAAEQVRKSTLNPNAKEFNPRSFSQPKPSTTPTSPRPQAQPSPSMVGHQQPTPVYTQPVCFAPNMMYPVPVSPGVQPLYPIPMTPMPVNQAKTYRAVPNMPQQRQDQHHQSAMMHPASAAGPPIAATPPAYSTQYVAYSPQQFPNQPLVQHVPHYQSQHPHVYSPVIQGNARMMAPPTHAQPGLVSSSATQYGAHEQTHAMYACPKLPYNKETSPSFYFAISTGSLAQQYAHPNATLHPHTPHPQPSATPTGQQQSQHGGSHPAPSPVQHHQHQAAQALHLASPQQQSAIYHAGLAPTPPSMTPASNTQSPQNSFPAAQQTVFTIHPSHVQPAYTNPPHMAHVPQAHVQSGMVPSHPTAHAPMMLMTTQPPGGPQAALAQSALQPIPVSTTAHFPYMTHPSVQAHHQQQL
- ASSAY_METHOD_TEXT: qHTS for Inhibitors of ATXN expression.
- Format: functional
Among all 400,000 compounds or so, about 2,100 (0.53%) were called active. Roughly 14% stayed inconclusive and do not appear here. How the calls were made is not given here. Only a selection was taken, and actives are over-represented in it overall.
Classes used: label 1 (active), label 0 (inactive)

compound=CC(C)c1noc(-c2ccccc2OCC(=O)Nc2ccccc2[N+](=O)[O-])n1 category="label 1"
compound=COc1cc(OC)c(OC)cc1C=Cc1ccc2ccccc2n1 category="label 0"
compound=CCOc1ccc(Nc2nc(N)nc(CSC(=S)N3CCN(c4ccccc4)CC3)n2)cc1 category="label 0"
compound=CCCn1c(=N)c(C(=O)NCc2ccco2)cc2c(=O)n3cc(C)ccc3nc21 category="label 0"
compound=Cc1ccc(Nc2nc(N)nc(CCl)n2)cc1 category="label 1"
compound=Nc1nc(CCl)nc(Nc2ccccc2)n1 category="label 1"
compound="CC(C)Oc1ccc(C(CCNCc2ccc(O)cc2)c2ccccc2)cc1 (stereo unspecified)" category="label 1"
compound=Cc1cccn2c(=O)c3cc(C(=O)NCc4ccco4)c(=N)n(C4CCCCC4)c3nc12 category="label 0"
compound=Cc1ccccc1-n1c2nc(=O)n(C)c(=O)c-2cc2ccccc21 category="label 0"
compound=OC[C@@H]1[C@@H](c2ccccc2)C(c2ccccc2)=NN1c1ccccc1 category="label 0"
compound="CC1CC(Nc2ccccc2)c2ccccc2N1C(=O)c1ccncc1 (stereo unspecified)" category="label 0"
compound=O=[N+]([O-])c1cc(C(F)(F)F)cc([N+](=O)[O-])c1NCCN=C(S)Nc1ccc(Cl)c(Cl)c1 category="label 1"
compound=CC(C)C[C@H](N)c1nnc(S(=O)(=O)Cc2cccc(F)c2)o1 category="label 1"
compound=Cc1ccc(C)c(-n2c3nc(=O)n(C)c(=O)c-3cc3ccccc32)c1 category="label 0"
compound=Cc1cccn2c(=O)c3cc(C(=O)NC4CCCCCC4)sc3nc12 category="label 0"
compound=CN(C)c1ccc(NC2=C(Cl)C(=O)c3ccccc3C2=O)cc1 category="label 1"
compound="CCCCCC(=O)NNC1=NCC(Cc2ccccc2)S1 (stereo unspecified)" category="label 0"
compound=CNS(=O)(=O)c1ccc2c3c(cccc13)C(=O)N2 category="label 0"
compound=Nc1cc(C(F)(F)F)cc([N+](=O)[O-])c1N category="label 0"
compound=O=C(Cn1ccc([N+](=O)[O-])n1)NCc1ccccc1 category="label 0"
compound=CN(CCCC(=O)N1CCN(c2ncccn2)CC1)S(=O)(=O)c1ccc(F)cc1 category="label 0"
compound=O=C(CN1CCCc2ccccc21)Nc1ccccc1[N+](=O)[O-] category="label 0"
compound=CSC1=NCCN1S(=O)(=O)c1ccc(C)cc1 category="label 0"
compound=O=C(Cn1c(=O)oc2ccc(Cl)cc21)NC1CCCCC1 category="label 0"
compound="CC(c1ccon1)N(C)C(=O)c1cnn(-c2ncc3c(n2)-c2ccccc2CC3)c1C1CC1 (stereo unspecified)" category="label 0"
compound=FC(F)(F)c1cccc(NC(S)=NCc2ccc(Cl)cc2)c1 category="label 0"

----------
- TARGET_OR_TEST_SYSTEM: Ataxin-2 (Homo sapiens)
- ASSAY_METHOD_TEXT: qHTS for Inhibitors of ATXN expression.
- Format: functional
Among all 400,000 compounds or so, about 2,100 (0.53%) were called active. Not shown: some 14% with an inconclusive outcome. The rule behind the calls is not given here. Many of the other results were omitted from the sample, so actives are more common in it than they were.
Classes used: true (active), false (inactive)

compound=CCN(CC)c1ccc2cc(S(=O)(=O)c3ccc(C)cc3)c(=O)oc2c1 target_or_test_system="Ataxin-2 (Homo sapiens)" category=false
compound=O=C(N/N=C/c1sc2ccccc2c1O)c1cccc2ccccc12 target_or_test_system="Ataxin-2 (Homo sapiens)" category=false
compound=Cc1cccc(NC(=O)c2c(C)nn(-c3ccccc3)c2Cl)c1 target_or_test_system="Ataxin-2 (Homo sapiens)" category=false
compound=CC(=O)c1cnc(SCc2ccc(Cl)cc2)nc1C target_or_test_system="Ataxin-2 (Homo sapiens)" category=false
compound="Cc1noc2ncnc(N3CCCC(C(=O)Nc4cccc(C(F)(F)F)c4)C3)c12 (stereo unspecified)" target_or_test_system="Ataxin-2 (Homo sapiens)" category=true
compound=Cn1nc(C(=O)OCC(=O)Nc2ccccc2OC(F)F)c2ccccc2c1=O target_or_test_system="Ataxin-2 (Homo sapiens)" category=false
compound=CC(=O)N1CCC(=NNc2ncc(C(F)(F)F)cc2Cl)CC1 target_or_test_system="Ataxin-2 (Homo sapiens)" category=false
compound=O=[N+]([O-])c1ccc(NN=Cc2ccccc2O)nc1 target_or_test_system="Ataxin-2 (Homo sapiens)" category=true
compound=CCOC(=O)c1cc2c(=O)n3cccc(C)c3nc2n(Cc2ccco2)/c1=N/C(=O)c1ccccc1 target_or_test_system="Ataxin-2 (Homo sapiens)" category=false
compound=CCCCCCN1C=C/C(=C\C=C(C#N)C#N)c2ccccc21 target_or_test_system="Ataxin-2 (Homo sapiens)" category=true
compound=CC(=O)NS(=O)(=O)c1ccc(/N=c2\ssc3c2-c2cc(C)ccc2NC3(C)C)cc1 target_or_test_system="Ataxin-2 (Homo sapiens)" category=true
compound="CC(=O)NC1C(=O)N(CCN2CCOCC2)c2ccc(C)cc21 (stereo unspecified)" target_or_test_system="Ataxin-2 (Homo sapiens)" category=false
compound=O=C(NCc1ccccc1Cl)[C@H]1CCCN1C(=O)[C@H]1CCCN1C(=O)c1cccc2ccccc12 target_or_test_system="Ataxin-2 (Homo sapiens)" category=true
compound="CN1C(=O)NC(NS(=O)(=O)c2ccc(N)cc2)(C(F)(F)F)C1=O (stereo unspecified)" target_or_test_system="Ataxin-2 (Homo sapiens)" category=false
compound=Cn1c(-c2c(N)n(C3CCCC3)c3nc4ccccc4nc23)nc2ccccc21 target_or_test_system="Ataxin-2 (Homo sapiens)" category=false
compound=Clc1ccc(/C=C/c2ncc3ccccn23)cc1 target_or_test_system="Ataxin-2 (Homo sapiens)" category=false
compound=Cc1csc2ncc(C(=O)N3CCc4ccccc43)c(=O)n12 target_or_test_system="Ataxin-2 (Homo sapiens)" category=false
compound="CCOC(=O)C(C)Sc1cnccn1 (stereo unspecified)" target_or_test_system="Ataxin-2 (Homo sapiens)" category=false
compound=O=C(NCc1ccccc1Cl)C1CCN(S(=O)(=O)c2ccc(-n3cnnn3)cc2)CC1 target_or_test_system="Ataxin-2 (Homo sapiens)" category=false
compound=O=C(NN=Cc1cc([N+](=O)[O-])ccc1O)c1cccc2ccccc12 target_or_test_system="Ataxin-2 (Homo sapiens)" category=true
compound=Cc1cccc(NC(=O)c2nc[nH]c2C(=O)N[C@@H](C)c2ccccc2)c1 target_or_test_system="Ataxin-2 (Homo sapiens)" category=true
compound=O=C(N=Nc1c(O)[nH]c2ccc(Br)cc12)c1ccccc1-n1cccc1 target_or_test_system="Ataxin-2 (Homo sapiens)" category=true
compound=COc1cccc(/C=N/NC(=O)c2ccc(=O)n(C)c2)c1O target_or_test_system="Ataxin-2 (Homo sapiens)" category=false
compound="CCC(C(=O)NCCc1ccccc1OC)n1nc(C)c2c(C)n(-c3ccccc3)nc2c1=O (stereo unspecified)" target_or_test_system="Ataxin-2 (Homo sapiens)" category=false
compound="O=C(NCc1ccccc1Cl)C1CCCO1 (stereo unspecified)" target_or_test_system="Ataxin-2 (Homo sapiens)" category=false
compound=CC(C)C[C@H](NC(=O)c1[nH]cnc1C(=O)NCCCCCNC(=O)OC(C)(C)C)C(=O)OC(C)(C)C target_or_test_system="Ataxin-2 (Homo sapiens)" category=true
compound="Cc1ccc(/C=C2\\CCC3=C2OC(N)=C(C#N)C3c2ccc(C)cc2)cc1 (stereo unspecified)" target_or_test_system="Ataxin-2 (Homo sapiens)" category=false
compound=CCOc1cc(/C=N/NC(=O)c2ccc3c(c2)OCCO3)cc(Br)c1O target_or_test_system="Ataxin-2 (Homo sapiens)" category=false
compound=O=[N+]([O-])c1ccc(N/N=C/c2ccc(OCc3cccc4ccccc34)cc2)nc1 target_or_test_system="Ataxin-2 (Homo sapiens)" category=false
compound=Cc1ccc(S(=O)(=O)N[C@H](C(=O)Oc2ccc3c(C(F)(F)F)cc(=O)oc3c2)c2ccccc2)cc1 target_or_test_system="Ataxin-2 (Homo sapiens)" category=false
compound=COC(=O)c1scc(C)c1S(=O)(=O)Nc1ccc(C)cc1 target_or_test_system="Ataxin-2 (Homo sapiens)" category=false

----------
- TARGET_OR_TEST_SYSTEM: Ataxin-2 (Homo sapiens) (UniProt Q99700)
- ASSAY_METHOD_TEXT: qHTS for Inhibitors of ATXN expression.
- Type: functional
Out of some 400,000 compounds screened, about 2,100 (0.53%) were called active. Roughly 14% stayed inconclusive and do not appear here. How the calls were made is not given here. This excerpt belongs to a sample that is enriched for actives.
Classes used: active, inactive

compound=Cc1cs/c(=N\c2cccnc2)n1Cc1ccco1 category=inactive
compound="CC(C)Cc1ccc(C(C)/C=C2/CCC(CN3CCCCC3)C2=O)cc1 (configuration not stated)" category=active
compound=Cc1c(O)ccc2c(CC(=O)N[C@@H](Cc3ccccc3)C(=O)O)cc(=O)oc12 category=inactive
compound="CC/C(=C\\C1CCCCC1)C(NP(=O)(c1ccccc1)c1ccccc1)c1ccccc1 (configuration not stated)" category=active
compound=Nc1nc(Br)c2ccccc2c1-c1ccccc1 category=inactive
compound=COC(=O)c1cc(=O)n(CCc2ccccc2F)/c(=N/c2ccc(F)c(Cl)c2)s1 category=active
compound=CCC(=O)Oc1ccc2c(C)c(Cl)c(=O)oc2c1 category=inactive
